- study target: MeCP2-MBD WT (UniProt P51608 80-164)
- Sequence (P51608 80-164): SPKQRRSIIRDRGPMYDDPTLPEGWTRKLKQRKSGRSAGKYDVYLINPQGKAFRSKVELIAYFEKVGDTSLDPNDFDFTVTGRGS
- method notes: EMSA; no peptide; EMSA: 0.5 uM DNA, 0-20 uM protein, 50 mM HEPES pH 7.5, 100 mM NaCl, 1 h at 4 C; 6% native PAGE, 1X TBE, 80 V, 4 C; SYBR Gold; n=3
- condition summary: protein: recombinant; tags: C-terminal 6xHis; label: none (SYBR Gold stain); blunt

binder | Kd / nM
BDNF promoter duplex mC/mC (dsDNA, 5-methyl-dC at position 10 of the top strand and position 15 of the bottom strand (symmetric mCpG)) DNA 1: GCCCTGGAACGGAACTCTTCTGGCC DNA 2: GGCCAGAAGAGTTCCGTTCCAGGGC | 1200

src = paper PMC12857291
